// reported pIC50 per item
Biological target: human NaV 1.8 (Homo sapiens)
Sequence (Q9Y5Y9 whole entry, looked up): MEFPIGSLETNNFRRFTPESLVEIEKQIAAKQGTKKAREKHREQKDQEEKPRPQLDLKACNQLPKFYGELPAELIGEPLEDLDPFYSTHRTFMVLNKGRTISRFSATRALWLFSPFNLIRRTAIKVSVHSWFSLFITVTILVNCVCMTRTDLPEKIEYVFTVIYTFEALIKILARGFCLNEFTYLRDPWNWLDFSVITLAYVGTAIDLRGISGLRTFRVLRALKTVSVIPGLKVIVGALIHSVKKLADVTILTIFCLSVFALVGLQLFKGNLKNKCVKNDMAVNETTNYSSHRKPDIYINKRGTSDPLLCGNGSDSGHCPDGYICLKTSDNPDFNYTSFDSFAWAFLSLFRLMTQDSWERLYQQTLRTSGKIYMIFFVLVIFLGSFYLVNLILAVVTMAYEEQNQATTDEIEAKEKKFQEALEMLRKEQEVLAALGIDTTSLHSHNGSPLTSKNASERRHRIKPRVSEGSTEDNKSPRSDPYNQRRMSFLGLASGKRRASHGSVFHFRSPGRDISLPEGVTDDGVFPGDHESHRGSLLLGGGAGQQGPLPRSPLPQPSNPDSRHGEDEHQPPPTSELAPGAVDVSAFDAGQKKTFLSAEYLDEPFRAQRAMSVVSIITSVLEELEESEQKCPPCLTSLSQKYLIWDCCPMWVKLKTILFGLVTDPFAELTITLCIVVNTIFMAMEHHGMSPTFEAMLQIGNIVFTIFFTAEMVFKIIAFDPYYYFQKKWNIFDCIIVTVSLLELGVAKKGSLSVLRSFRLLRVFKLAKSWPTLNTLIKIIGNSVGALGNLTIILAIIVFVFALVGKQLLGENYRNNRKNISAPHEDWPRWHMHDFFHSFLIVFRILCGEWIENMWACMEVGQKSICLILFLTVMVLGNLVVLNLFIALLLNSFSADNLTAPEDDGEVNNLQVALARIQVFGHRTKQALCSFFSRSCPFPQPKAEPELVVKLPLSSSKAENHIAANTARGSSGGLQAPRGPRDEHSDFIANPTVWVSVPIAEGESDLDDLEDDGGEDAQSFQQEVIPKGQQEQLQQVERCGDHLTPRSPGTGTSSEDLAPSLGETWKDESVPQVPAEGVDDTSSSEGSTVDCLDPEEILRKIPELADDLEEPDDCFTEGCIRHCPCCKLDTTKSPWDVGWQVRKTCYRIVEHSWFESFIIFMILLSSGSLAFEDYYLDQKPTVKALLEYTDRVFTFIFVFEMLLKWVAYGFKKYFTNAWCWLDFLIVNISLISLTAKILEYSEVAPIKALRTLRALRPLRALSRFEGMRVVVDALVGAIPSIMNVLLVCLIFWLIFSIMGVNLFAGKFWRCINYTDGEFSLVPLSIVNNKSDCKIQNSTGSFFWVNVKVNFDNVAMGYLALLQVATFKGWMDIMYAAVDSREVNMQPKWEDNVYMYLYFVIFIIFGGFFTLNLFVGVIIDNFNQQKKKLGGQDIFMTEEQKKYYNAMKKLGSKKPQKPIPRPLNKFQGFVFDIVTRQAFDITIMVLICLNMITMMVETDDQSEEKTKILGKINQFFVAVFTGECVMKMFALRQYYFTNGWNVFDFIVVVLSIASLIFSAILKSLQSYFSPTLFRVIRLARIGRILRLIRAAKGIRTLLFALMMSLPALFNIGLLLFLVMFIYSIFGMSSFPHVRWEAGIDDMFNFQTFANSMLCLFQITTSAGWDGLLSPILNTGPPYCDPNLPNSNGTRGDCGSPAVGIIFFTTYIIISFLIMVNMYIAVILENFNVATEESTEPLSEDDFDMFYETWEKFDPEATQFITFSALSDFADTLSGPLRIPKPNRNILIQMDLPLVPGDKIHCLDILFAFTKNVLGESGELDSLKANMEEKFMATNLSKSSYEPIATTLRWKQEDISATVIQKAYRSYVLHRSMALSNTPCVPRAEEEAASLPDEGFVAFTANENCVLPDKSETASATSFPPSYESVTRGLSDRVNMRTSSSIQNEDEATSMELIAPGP
Assay: E-VIPR assay for detecting and measuring NaV inhibition properties
Assay type: cell-based
Settings: E-VIPR assay conducted in the presence of human serum; HEK cells expressing truncated human NaV 1.8; read-out: IC50
pIC50: −log10 of the molar value.

Qu. Entry COc1cc(F)ccc1-c1ccc(C(F)(F)F)cc1C(=O)Nc1ccc(F)c(C(N)=O)c1 : reported pIC50 = ?
Ans. < 5.52

Qu. Queued: COc1cc(Oc2cc(C(F)(F)F)ccc2C(=O)Nc2ccnc(C(N)=O)c2)ccc1F
Ans. < 5.52

# input for lookup
Qu. Entry CC(F)(F)c1cc(F)ccc1Oc1cc(C(F)(F)F)ccc1C(=O)Nc1ccnc(C(N)=O)c1 : reported pIC50 = ?
Ans. < 5.52

The reported measurements were obtained from patent US12441703B2.
